- target: T1, CD3 epsilon homodimer protein (UniProt P07766 23-126)
- T1 construct: also called CD3 (CD3 epsilon)
- T1 sequence (P07766 23-126): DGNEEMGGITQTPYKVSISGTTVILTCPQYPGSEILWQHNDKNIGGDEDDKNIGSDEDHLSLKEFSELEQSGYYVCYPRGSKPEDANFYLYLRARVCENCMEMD
- test_summary: SPR Biacore T200, CD3e homodimer on chip, vs unaltered GLS3000 antibody
Entries annotated with measured ratio of amounts bound (Z=Y/X)

{"columns": ["binder", "ratio of amounts bound (Z=Y/X)"],
 "data": [
  ["GLS3000 F55S (antibody, name in Kabat numbering, V domains shown, one-arm IgG as m2) VH: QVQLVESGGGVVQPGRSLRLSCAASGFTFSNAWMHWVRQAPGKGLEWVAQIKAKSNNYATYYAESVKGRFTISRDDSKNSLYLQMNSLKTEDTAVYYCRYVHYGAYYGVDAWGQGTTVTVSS VL: DIVMTQSPLSLPVTPGEPASISCRSSQSLVHSNRNTYLHWYQQKPGQAPRLLIYKVSNRSSGVPDRFSGSGSGTDFTLKISRVEAEDVGVYYCGQGTQVPYTFGQGTKLEIK", 0.69],
  ["GLS3000 N28L (antibody, name in Kabat numbering, V domains shown, one-arm IgG as m2) VH: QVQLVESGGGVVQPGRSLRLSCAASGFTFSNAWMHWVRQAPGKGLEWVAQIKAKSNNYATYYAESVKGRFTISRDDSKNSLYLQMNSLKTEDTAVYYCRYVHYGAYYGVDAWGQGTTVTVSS VL: DIVMTQSPLSLPVTPGEPASISCRSSQSLVHSLRNTYLHWYQQKPGQAPRLLIYKVSNRFSGVPDRFSGSGSGTDFTLKISRVEAEDVGVYYCGQGTQVPYTFGQGTKLEIK", 0.39],
  ["GLS3000 V94G (antibody, name in Kabat numbering, V domains shown, one-arm IgG as m2) VH: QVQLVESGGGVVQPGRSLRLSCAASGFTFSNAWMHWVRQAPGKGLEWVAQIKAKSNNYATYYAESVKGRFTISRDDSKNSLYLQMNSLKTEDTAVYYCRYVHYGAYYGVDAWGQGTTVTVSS VL: DIVMTQSPLSLPVTPGEPASISCRSSQSLVHSNRNTYLHWYQQKPGQAPRLLIYKVSNRFSGVPDRFSGSGSGTDFTLKISRVEAEDVGVYYCGQGTQGPYTFGQGTKLEIK", 0.48]
]}
